# assay_system: HDAC6 enzyme (Homo sapiens)
# Construct: transducing full length HDAC1 and HDAC6 genes into Sf-9 insect cells; GST; purchased SignalChem; host or cells: Sf-9 insect cells
# test_protocol: HDAC1/6 Enzyme Inhibitory Assay (HDAC-Glo I/II Assay kit), HDAC6
# Type: biochemical
# condition_notes: 1 μM test compound; wells without enzyme = 100% inhibition; read-out: HDAC6 inhibitory rate (%) (1 μM)
endpoint: inhibition at 1 µM (%)

[1] CC1CC1C(=O)N[C@@H]1CCCC[C@H]1N1Cc2ccc(-c3noc(C(F)(F)F)n3)cc2C1=O (some centres unmarked)
[2] O=C(N[C@H]1CCOC[C@@H]1N1Cc2ccc(-c3noc(C(F)(F)F)n3)cc2C1=O)[C@@H]1CCOC1
Lab note: check whether 1 or 2 shows the higher recorded inhibition at 1 µM. Please respond with the label that marks your chosen entry. 1

====

# assay_system: HDAC9 enzyme (Homo sapiens, UniProt Q9UKV0)
# Construct: transducing full length HDAC9 gene into Sf-9 insect cells; made in house; host or cells: Sf-9 insect cells
# Sequence (Q9UKV0 whole entry, species assumed): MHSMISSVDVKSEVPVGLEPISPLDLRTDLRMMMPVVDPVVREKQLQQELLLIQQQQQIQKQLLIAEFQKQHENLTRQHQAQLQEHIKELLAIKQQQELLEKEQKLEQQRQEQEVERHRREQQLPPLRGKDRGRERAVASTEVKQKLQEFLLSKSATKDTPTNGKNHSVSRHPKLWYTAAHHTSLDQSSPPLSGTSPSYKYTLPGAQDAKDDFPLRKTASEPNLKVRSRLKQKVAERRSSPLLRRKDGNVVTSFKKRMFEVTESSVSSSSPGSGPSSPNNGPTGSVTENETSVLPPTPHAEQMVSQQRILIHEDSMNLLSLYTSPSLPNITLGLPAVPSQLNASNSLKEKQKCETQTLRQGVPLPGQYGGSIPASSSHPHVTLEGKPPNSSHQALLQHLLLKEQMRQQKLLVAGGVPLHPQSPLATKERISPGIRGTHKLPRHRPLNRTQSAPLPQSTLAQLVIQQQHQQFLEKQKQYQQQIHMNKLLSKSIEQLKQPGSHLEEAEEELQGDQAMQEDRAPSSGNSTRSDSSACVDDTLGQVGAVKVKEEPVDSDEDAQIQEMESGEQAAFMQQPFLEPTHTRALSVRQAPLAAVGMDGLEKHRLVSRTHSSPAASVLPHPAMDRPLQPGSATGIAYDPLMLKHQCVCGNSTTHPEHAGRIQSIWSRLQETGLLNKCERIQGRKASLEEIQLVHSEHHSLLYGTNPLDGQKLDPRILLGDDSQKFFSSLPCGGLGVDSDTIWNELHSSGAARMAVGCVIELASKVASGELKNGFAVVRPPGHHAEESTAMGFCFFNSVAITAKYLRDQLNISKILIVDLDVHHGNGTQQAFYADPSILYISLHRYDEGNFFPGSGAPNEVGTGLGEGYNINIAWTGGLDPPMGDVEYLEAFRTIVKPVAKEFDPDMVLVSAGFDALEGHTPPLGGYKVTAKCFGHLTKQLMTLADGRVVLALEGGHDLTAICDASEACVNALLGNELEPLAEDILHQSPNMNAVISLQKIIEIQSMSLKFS
# test_protocol: HDAC9 Enzyme Inhibitory Assay (HDAC-Glo class IIa)
# Format: biochemical
# condition_notes: 1 μM test compound; wells without enzyme = 100% inhibition; read-out: HDAC9 inhibitory rate (%) (1 μM)
endpoint: inhibition at 1 µM (%)

item_smiles: O=C(N[C@H]1CCOC[C@@H]1N1Cc2ccc(-c3noc(C(F)(F)F)n3)cc2C1=O)[C@@H]1CCOC1
value_unit: %
inhibition at 1 µM: 51

item_smiles: CC1(C)C(C(=O)N[C@@H]2CCCC[C@H]2N2Cc3ccc(-c4noc(C(F)(F)F)n4)cc3C2=O)C1(C)C
value_unit: %
inhibition at 1 µM: 51

item_smiles: CC(C)(O)CC(=O)N[C@@H]1CCCC[C@H]1N1Cc2ccc(-c3noc(C(F)(F)F)n3)cc2C1=O
value_unit: %
inhibition at 1 µM: 50

====

# assay_system: HDAC9 enzyme (Homo sapiens)
# Construct: transducing full length HDAC9 gene into Sf-9 insect cells; made in house; host or cells: Sf-9 insect cells
# test_protocol: HDAC9 Enzyme Inhibitory Assay (HDAC-Glo class IIa)
# Assay type: biochemical
# condition_notes: 1 μM test compound; wells without enzyme = 100% inhibition; 1 µM
endpoint: HDAC9 inhibitory rate (%) (1 μM)

compound: O=C1CCCN1[C@@H]1CCOC[C@H]1N1Cc2ccc(-c3noc(C(F)(F)F)n3)cc2C1=O [Example 182]
HDAC9 inhibitory rate (%) (1 μM): 71

compound: O=C1CCCN1[C@@H]1CCOC[C@H]1N1Cc2ccc(-c3noc(C(F)(F)F)n3)cc2C1=O [Example 183]
HDAC9 inhibitory rate (%) (1 μM): 47

compound: O=C1CCCN1[C@@H]1COCC[C@H]1N1Cc2ccc(-c3noc(C(F)(F)F)n3)cc2C1=O
HDAC9 inhibitory rate (%) (1 μM): 72

compound: CC1(C(=O)N[C@@H]2CCCC[C@H]2N2Cc3ccc(-c4noc(C(F)(F)F)n4)cc3C2=O)CC1(F)F (stereo partly shown) [Example 170]
HDAC9 inhibitory rate (%) (1 μM): 64

====

# assay_system: HDAC6 enzyme (Homo sapiens)
# Construct: transducing full length HDAC1 and HDAC6 genes into Sf-9 insect cells; GST; purchased SignalChem; host or cells: Sf-9 insect cells
# test_protocol: HDAC1/6 Enzyme Inhibitory Assay (HDAC-Glo I/II Assay kit), HDAC6
# Type: biochemical
# condition_notes: 1 μM test compound; wells without enzyme = 100% inhibition; read-out: HDAC6 inhibitory rate (%) (1 μM)
endpoint: inhibition at 1 µM (%)

Consider the reported inhibition at 1 µM for these compounds:
compound: O=C(N[C@@H]1CCCC[C@H]1N1Cc2ccc(-c3noc(C(F)(F)F)n3)cc2C1=O)C1C[C@@H]1F (stereo partly drawn) [Example 98]
inhibition at 1 µM (%): 99
--
compound: O=C1c2cc(-c3noc(C(F)(F)F)n3)ccc2CN1[C@@H]1CCCC[C@H]1NC(=O)C1(c2ccccc2)COC1 [Example 134]
inhibition at 1 µM (%): 99
--
compound: CC(C)(C)OC(=O)N[C@@H]1COCC[C@H]1N1Cc2ccc(-c3noc(C(F)(F)F)n3)cc2C1=O [Example 81]
inhibition at 1 µM (%): 100
--
compound: O=C1CC(C(=O)N[C@@H]2CCCCC2N2Cc3ccc(-c4noc(C(F)(F)F)n4)cc3C2=O)CN1 (stereo in doubt) [Example 131]
inhibition at 1 µM (%): 88
--
compound: N[C@@H]1CCCC[C@H]1N1Cc2ccc(-c3noc(C(F)(F)F)n3)cc2C1=O (relative stereo) [Example 7]
inhibition at 1 µM (%): 76
--
compound: CC1(C(=O)N[C@H]2CCC[C@@H]2N2Cc3ccc(-c4noc(C(F)(F)F)n4)cc3C2=O)COC1 [Example 152]
inhibition at 1 µM (%): 31
--
compound: CC1(C(=O)N[C@@H]2CCCC[C@H]2N2Cc3ccc(-c4noc(C(F)(F)F)n4)cc3C2=O)CC1(F)F (stereo partly drawn) [Example 111]
inhibition at 1 µM (%): 99
--
compound: O=C(NC1CC1)N[C@@H]1CCCC[C@H]1N1Cc2ccc(-c3noc(C(F)(F)F)n3)cc2C1=O [Example 154]
inhibition at 1 µM (%): 100

[a] O=C(N[C@@H]1CCCC[C@H]1N1Cc2ccc(-c3noc(C(F)(F)F)n3)cc2C1=O)N1CC2CC1CO2 (stereo partly drawn) [Example 156]
[b] N[C@H]1CCCC[C@@H]1N1Cc2ccc(-c3noc(C(F)(F)F)n3)cc2C1=O [Example 29]
Lab note: check whether a or b shows the higher recorded inhibition at 1 µM. Please respond with the label that marks your chosen entry. a

[P] N#CC1(C(=O)N[C@@H]2CCCC[C@H]2N2Cc3ccc(-c4noc(C(F)(F)F)n4)cc3C2=O)CC1 [Example 122]
[Q] CC(C)(C)OC(=O)N[C@H]1CCCC[C@@H]1N1Cc2ccc(-c3noc(C(F)(F)F)n3)cc2C1=O [Example 27]
For the pair P and Q , which member has the lower inhibition at 1 µM number? Please respond with the label that marks your chosen entry. Q

====

# assay_system: HDAC6 enzyme (Homo sapiens, UniProt Q9UBN7)
# Construct: transducing full length HDAC1 and HDAC6 genes into Sf-9 insect cells; GST; purchased SignalChem; host or cells: Sf-9 insect cells
# Sequence (Q9UBN7 whole entry): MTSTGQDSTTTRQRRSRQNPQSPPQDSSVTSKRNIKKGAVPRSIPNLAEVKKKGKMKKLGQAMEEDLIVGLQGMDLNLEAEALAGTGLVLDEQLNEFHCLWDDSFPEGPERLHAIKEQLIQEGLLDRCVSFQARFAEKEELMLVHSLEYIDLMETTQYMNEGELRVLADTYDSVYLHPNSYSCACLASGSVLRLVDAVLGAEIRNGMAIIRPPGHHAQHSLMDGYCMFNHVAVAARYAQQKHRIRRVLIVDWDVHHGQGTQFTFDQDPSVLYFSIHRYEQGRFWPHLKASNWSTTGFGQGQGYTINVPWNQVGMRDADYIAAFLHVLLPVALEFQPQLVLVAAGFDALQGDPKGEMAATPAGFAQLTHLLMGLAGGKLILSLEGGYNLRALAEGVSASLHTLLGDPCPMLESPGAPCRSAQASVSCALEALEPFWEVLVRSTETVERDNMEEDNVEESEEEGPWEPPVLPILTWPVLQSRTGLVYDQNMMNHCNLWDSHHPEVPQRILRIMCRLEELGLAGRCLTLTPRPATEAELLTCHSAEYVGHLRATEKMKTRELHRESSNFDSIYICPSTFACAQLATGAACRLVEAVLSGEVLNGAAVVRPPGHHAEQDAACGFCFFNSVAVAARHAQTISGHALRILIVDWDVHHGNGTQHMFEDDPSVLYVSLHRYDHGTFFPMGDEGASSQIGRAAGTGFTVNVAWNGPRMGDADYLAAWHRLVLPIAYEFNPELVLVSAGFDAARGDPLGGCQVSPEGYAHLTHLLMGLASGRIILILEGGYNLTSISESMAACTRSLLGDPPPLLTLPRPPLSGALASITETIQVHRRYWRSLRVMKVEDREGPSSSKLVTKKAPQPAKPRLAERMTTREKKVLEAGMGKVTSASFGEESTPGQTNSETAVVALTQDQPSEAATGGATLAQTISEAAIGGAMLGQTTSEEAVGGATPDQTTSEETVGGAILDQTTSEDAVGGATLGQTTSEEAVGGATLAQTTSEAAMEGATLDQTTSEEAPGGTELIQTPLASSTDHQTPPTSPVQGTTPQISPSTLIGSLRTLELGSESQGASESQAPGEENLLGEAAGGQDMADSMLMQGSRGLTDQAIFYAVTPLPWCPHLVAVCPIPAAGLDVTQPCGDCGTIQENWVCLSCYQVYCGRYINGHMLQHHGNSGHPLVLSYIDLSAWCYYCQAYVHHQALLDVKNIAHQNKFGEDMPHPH
# test_protocol: HDAC1/6 Enzyme Inhibitory Assay (HDAC-Glo I/II Assay kit), HDAC6
# Assay type: biochemical
# condition_notes: 1 μM test compound; wells without enzyme = 100% inhibition; read-out: HDAC6 inhibitory rate (%) (1 μM)
endpoint: inhibition at 1 µM (%)

Consider the reported inhibition at 1 µM for these compounds:
compound: CC(C)(C)OC(=O)N1CC[C@@H](N2Cc3cc(-c4noc(C(F)(F)F)n4)ccc3C2=O)[C@H](c2ccccc2)C1 (relative stereo)
endpoint: inhibition at 1 µM
value_unit: %
value_measured: 40
--
compound: CC(=O)N1CC(N2Cc3ncc(-c4noc(C(F)(F)F)n4)cc3C2=O)C1
endpoint: inhibition at 1 µM
value_unit: %
value_measured: 87
--
compound: O=C(N[C@H]1CCCC[C@@H]1N1Cc2ccc(-c3noc(C(F)(F)F)n3)cc2C1=O)[C@H]1CCCO1
endpoint: inhibition at 1 µM
value_unit: %
value_measured: 44
--
compound: CC(=O)N[C@@H]1CCCC[C@H]1N1Cc2ccc(-c3noc(C(F)(F)F)n3)cc2C1=O (relative stereo)
endpoint: inhibition at 1 µM
value_unit: %
value_measured: 98
--
compound: O=C1c2cc(-c3noc(C(F)(F)F)n3)ccc2CN1[C@@H]1CCOC[C@H]1c1ccccc1 (relative stereo)
endpoint: inhibition at 1 µM
value_unit: %
value_measured: 99
--
compound: O=C1c2cc(-c3noc(C(F)(F)F)n3)ccc2CN1[C@@H]1CCNC[C@H]1c1ccc(F)c(F)c1 (relative stereo)
endpoint: inhibition at 1 µM
value_unit: %
value_measured: 99
--
compound: O=C1c2cc(-c3noc(C(F)(F)F)n3)ccc2CN1[C@@H]1CCNC[C@H]1c1ccc(F)cc1 (relative stereo)
endpoint: inhibition at 1 µM
value_unit: %
value_measured: 100
--
compound: O=C(N[C@@H]1CCOC[C@H]1N1Cc2ccc(-c3noc(C(F)(F)F)n3)cc2C1=O)[C@H]1CC1(F)F
endpoint: inhibition at 1 µM
value_unit: %
value_measured: 100
--
compound: CC(C)(O)C(=O)N[C@@H]1CCCC[C@H]1N1Cc2ccc(-c3noc(C(F)(F)F)n3)cc2C1=O
endpoint: inhibition at 1 µM
value_unit: %
value_measured: 100
--
compound: COc1ccc([C@@H]2CNCC[C@H]2N2Cc3ccc(-c4noc(C(F)(F)F)n4)cc3C2=O)cc1 (relative stereo)
endpoint: inhibition at 1 µM
value_unit: %
value_measured: 96

[I] O=C(C1CC1)N1C[C@@H](N2Cc3ccc(-c4noc(C(F)(F)F)n4)cc3C2=O)[C@H](c2ccccc2)C1 (relative stereo)
[II] CC1(C(=O)N[C@H]2CCCC[C@@H]2N2Cc3ccc(-c4noc(C(F)(F)F)n4)cc3C2=O)COC1
Lab note: check whether I or II shows the higher recorded inhibition at 1 µM. Please respond with the label that marks your chosen entry. I
(I: 100%, II: 43%)
